This section presents compounds with their documented remaining binding at 1 µM values.
- Target under test: TYK2(JH2domain-pseudokinase) (Homo sapiens)
- Construct: TYK2(JH2domain-pseudokinase); purchased Eurofins DiscoverX KINOMEscan (scanTK)
- Sequence (P29597 575-869 limits assumed): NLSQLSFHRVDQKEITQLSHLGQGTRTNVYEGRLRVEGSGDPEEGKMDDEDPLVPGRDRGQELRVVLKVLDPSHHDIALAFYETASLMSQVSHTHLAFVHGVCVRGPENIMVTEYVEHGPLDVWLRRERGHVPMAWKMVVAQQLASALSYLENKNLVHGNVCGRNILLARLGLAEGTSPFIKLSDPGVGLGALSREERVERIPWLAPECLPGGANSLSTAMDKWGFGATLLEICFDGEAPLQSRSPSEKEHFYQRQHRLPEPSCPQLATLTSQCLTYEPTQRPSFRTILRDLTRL
- Experimental details: KINOMEscan ScanTK
- Type: binding
- Experimental context: read-out: %Control @1000nM
Write the value in % as a bare number.

Examples from the recorded data:
CCOC(=O)c1cnc(S(C)(=O)=O)nc1N1CCC[C@@H](n2nc(-c3ccc(Oc4ccccc4)cc3)c3c(N)ncnc32)C1 = 100
C=CC(=O)N1CCC[C@@H](n2nc(-c3ccc(Oc4ccccc4)cc3)c3c(N)ncnc32)C1 [Compound 1g, Ibrutinib, reference compound] = 88
CNC(=O)c1cnc(S(C)(=O)=O)nc1N1CCCC(n2nc(-c3ccc(Oc4ccccc4)cc3)c3c(N)ncnc32)C1 (centres unmarked) = 96
Cc1cnc(S(C)(=O)=O)nc1N1CCCC(n2nc(-c3ccc(Oc4ccccc4)cc3)c3c(N)ncnc32)C1 (centres unmarked) = 92

Please turn your attention to the following entry.
Provide remaining binding at 1 µM value for the following compound: COC(=O)c1cnc(S(C)(=O)=O)nc1N1CCCC(n2nc(-c3ccc(Oc4ccccc4)cc3)c3c(N)ncnc32)C1 (centres unmarked)
96
